- Protocol Details: Pharmacokinetic study in beagle dogs
- Format: in vivo
- Experimental Context: beagle, dog, plasma, po, 30 mg/kg, i.g., Beagle 5
Metric Name: Cmax (ng/mL)

compound_smiles=CNC(=O)c1cc(Oc2ccc(NC(=O)c3cccc(C(F)(F)F)c3)cc2)ccn1.Cc1ccc(S(=O)(=O)O)cc1.O metric_name=Cmax units_of_measure=ng/mL reported_result=860

====

- Protocol Details: Pharmacokinetic study in beagle dogs
- Format: in vivo
- Experimental Context: beagle, dog, plasma, po, 30 mg/kg, i.g., mean ± SD, n = 3
Metric Name: AUC(0-t) (ng·h/mL)

compound="CNC(=O)c1cc(Oc2ccc(NC(=O)c3cccc(C(F)(F)F)c3)cc2)ccn1.Cc1ccc(S(=O)(=O)O)cc1.O [NCE]" units_of_measure=ng·h/mL reported_result=9210
